Values compiled from patent US8309550B2.

- Test Target: Aurora B (Homo sapiens)
- Sequence (Q96GD4 whole entry): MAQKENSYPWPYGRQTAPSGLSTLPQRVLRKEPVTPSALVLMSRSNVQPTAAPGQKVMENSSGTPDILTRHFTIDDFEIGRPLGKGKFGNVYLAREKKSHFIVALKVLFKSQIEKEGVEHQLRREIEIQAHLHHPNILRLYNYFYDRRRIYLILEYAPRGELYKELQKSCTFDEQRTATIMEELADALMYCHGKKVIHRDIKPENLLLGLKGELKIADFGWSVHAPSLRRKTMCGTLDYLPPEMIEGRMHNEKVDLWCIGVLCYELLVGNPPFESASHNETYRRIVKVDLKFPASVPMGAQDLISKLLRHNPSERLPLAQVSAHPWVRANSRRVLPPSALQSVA
- Experiment Description: Kinase assay Aurora B (Table I)
- Type: biochemical
- Conditions Used: read-out: Kinase inhibition, IC50 Aurora B
Quantity Measured: IC50 (µM)

CCCn1cc(-c2ccnc(Nc3ccc(S(N)(=O)=O)cc3)n2)c2nc(Cl)cc(C)c21 ... 0.32

P. CCCn1cc(-c2ccnc(Nc3cccc(S(N)(=O)=O)c3)n2)c2ccncc21
Q. CCn1cc(-c2ccnc(Nc3cccc(S(N)(=O)=O)c3)n2)c2cccnc21
Incoming: Two entries are listed, P and Q . Which one carries the higher IC50? Select an item and report its label.
Outgoing: Q
(Q: 0.7 µM, P: 0.059 µM)

---

IC50 overview
- Tested on: A549 cells
- Experiment Description: 72 h MTT cytotoxicity assay A549
- Format: cell-based
- Conditions Used: Homo sapiens; A549, 72 hrs
Quick reminder: number only, in nM, skip the unit.

CCCn1cc(-c2ccnc(Nc3cccc(S(N)(=O)=O)c3)n2)c2ccncc21 [Compound 111] ... 10
CCCn1cc(-c2ccnc(Nc3cccc([N+](=O)[O-])c3)n2)c2cccnc21 [Compound 17] ... 2190
CCCn1cc(-c2ccnc(Nc3ccc(C)c(S(=O)(=O)N4CCOCC4)c3)n2)c2cccnc21 [Compound 24] ... 3690
CCCn1cc(-c2ccnc(Nc3ccc(S(N)(=O)=O)cc3)n2)c2nc(Cl)cc(C)c21 [Compound 39] ... 420
CCCn1cc(-c2ccnc(Nc3ccc(O)cc3)n2)c2cccnc21 [Compound 15] ... 4980
CCn1cc(-c2ccnc(Nc3cccc(S(N)(=O)=O)c3)n2)c2ccnc(Cl)c21 [Compound 73] ... 370
CCn1cc(-c2ccnc(Nc3cccc(C#N)c3)n2)c2cccnc21 [Compound 20] ... 3070
Cn1cc(-c2ccnc(Nc3ccc(O)cc3)n2)c2ccccc21 [Compound 2] ... 8290

--- query ---
Entry CCn1cc(-c2ccnc(Nc3cccc(S(N)(=O)=O)c3)n2)c2cccnc21 [Compound 18] ; assay system A549 cells; IC50 recorded at 1210

---

- Test Target: CDK2/cyclinA (Homo sapiens)
- Construct: purchased Invitrogen PV3267
- Experiment Description: Z'-LYTE kinase assay CDK2/cyclinA
- Assay type: biochemical
- Conditions Used: read-out: Kinase inhibition, IC50 CDK2A
Quantity Measured: IC50 (nM)

Cn1cc(-c2ccnc(Nc3ccc(O)cc3Cl)n2)c2ccccc21 [Compound 3] ... 7530
Cn1cc(-c2ccnc(Nc3cccc(O)c3)n2)c2ccccc21 [Compound 1] ... 543
CCCn1cc(-c2ccnc(Nc3cccc([N+](=O)[O-])c3)n2)c2cccnc21 [Compound 17] ... 463

P. Cc1cc(O)ccc1Nc1nccc(-c2cn(C)c3ccccc23)n1 [Compound 4]
Q. CCn1cc(-c2ccnc(Nc3cccc(O)c3)n2)c2ccnc(Cl)c21 [Compound 72]
Incoming: Would you kindly point out which of P and Q has the smaller IC50 figure? Field: selected label. Fill in the label of the entry you choose.
Outgoing: Q
(Q: 4.3 nM, P: 1770 nM)

---

- Experiment Description: Pharmacokinetic determination, rat IV/PO study
- Type: in vivo
- Conditions Used: male, Sprague-Dawley, plasma, PO (20 mg/kg)
Quantity Measured: Tmax (min)
Give just the numeric value; min need not be written.

Briefly, Tmax measured for CCn1cc(-c2ccnc(Nc3cccc(S(N)(=O)=O)c3)n2)c2cccnc21 : 34.8
